- assay-system: EGFR L858R&T790M (Homo sapiens, UniProt P00533, L858R/T790M)
- Construct: host or cells: NCI-H1975
- Sequence (P00533 25-1210 T790M/L858R): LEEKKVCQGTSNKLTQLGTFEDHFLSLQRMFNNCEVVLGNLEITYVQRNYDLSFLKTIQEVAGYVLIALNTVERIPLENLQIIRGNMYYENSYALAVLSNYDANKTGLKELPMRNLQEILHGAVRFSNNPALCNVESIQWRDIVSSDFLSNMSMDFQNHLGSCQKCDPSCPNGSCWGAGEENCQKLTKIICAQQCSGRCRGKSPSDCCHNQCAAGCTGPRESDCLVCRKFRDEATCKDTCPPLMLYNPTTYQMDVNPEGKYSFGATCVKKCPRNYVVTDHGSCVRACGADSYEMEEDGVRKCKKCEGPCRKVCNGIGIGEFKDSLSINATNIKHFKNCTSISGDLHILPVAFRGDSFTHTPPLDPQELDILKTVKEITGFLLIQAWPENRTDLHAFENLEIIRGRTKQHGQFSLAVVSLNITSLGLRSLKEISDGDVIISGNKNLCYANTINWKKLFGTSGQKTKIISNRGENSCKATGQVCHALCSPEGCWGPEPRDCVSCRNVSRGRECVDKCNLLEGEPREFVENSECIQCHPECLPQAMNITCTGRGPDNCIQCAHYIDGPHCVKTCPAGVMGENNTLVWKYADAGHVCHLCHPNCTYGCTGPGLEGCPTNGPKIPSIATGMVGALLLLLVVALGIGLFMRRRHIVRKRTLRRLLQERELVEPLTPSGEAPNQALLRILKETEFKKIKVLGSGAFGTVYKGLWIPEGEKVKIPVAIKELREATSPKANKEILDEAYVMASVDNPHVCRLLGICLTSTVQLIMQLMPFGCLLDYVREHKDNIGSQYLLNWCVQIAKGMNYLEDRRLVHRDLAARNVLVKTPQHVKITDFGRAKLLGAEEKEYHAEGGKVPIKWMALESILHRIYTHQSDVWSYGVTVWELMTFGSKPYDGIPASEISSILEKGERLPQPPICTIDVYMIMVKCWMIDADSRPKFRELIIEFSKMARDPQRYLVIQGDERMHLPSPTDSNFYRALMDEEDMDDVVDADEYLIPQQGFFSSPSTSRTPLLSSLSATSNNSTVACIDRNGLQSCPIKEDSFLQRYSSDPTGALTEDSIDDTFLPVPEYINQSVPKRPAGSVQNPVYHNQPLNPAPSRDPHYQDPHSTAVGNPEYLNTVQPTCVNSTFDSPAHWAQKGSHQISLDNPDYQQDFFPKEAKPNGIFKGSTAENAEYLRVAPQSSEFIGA
- experiment-description: EGFR L858R and T790M cellular phosphorylation inhibition in NCI-H1975 (MSD);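 also: phosphorylated and total EGFR detected by electrochemiluminescence, cells exposed to compound in medium containing 1% FBS at 37 °C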
- Type: cell-based
- condition-info: NCI-H1975 cells, 4 h compound, p-EGFR(Y1068)/total EGFR; read-out: EGFR L858R and T790M mutation IC50
Counter-ions that a name gives are not always drawn.
outcome-measure: pIC50
The meaning of pIC50 here: minus log10 of the concentration in molar units.

Below: 5 molecules and their reported pIC50.
[
  {
    "molecule": "C=CC(=O)Nc1cc(Nc2ncnc(Nc3cc(Cl)c(F)cc3C(C)(C)O)n2)c(OC)cc1N1CCC[C@H]1CN(C)C",
    "assay-system": "EGFR L858R&T790M (Homo sapiens, UniProt P00533, L858R/T790M)",
    "pIC50": 8.10
  },
  {
    "molecule": "C=CC(=O)Nc1cc(Nc2ncnc(Nc3cc(F)c(Cl)cc3C(C)(C)O)n2)c(OC)cc1N1CC[C@@H](N(C)C)C1",
    "assay-system": "EGFR L858R&T790M (Homo sapiens, UniProt P00533, L858R/T790M)",
    "pIC50": 9.00
  },
  {
    "molecule": "C=CC(=O)Nc1cc(Nc2nccc(Nc3cc(Cl)c(F)cc3C(C)(C)O)n2)c(OC)cc1N1C[C@H](N(C)C)C2(CC2)C1 [Compound 83, formic acid salt]",
    "assay-system": "EGFR L858R&T790M (Homo sapiens, UniProt P00533, L858R/T790M)",
    "pIC50": 8.30
  },
  {
    "molecule": "C=CC(=O)Nc1cc(Nc2ncnc(Nc3cc(Cl)c(F)cc3C3(O)CCC3)n2)c(OC)cc1N(C)CCN(C)C [Compound 72, formic acid salt]",
    "assay-system": "EGFR L858R&T790M (Homo sapiens, UniProt P00533, L858R/T790M)",
    "pIC50": 9.22
  },
  {
    "molecule": "C=CC(=O)Nc1cc(Nc2ncnc(Nc3cc(F)c(F)cc3C(C)(C)O)n2)c(OC)cc1N(C)CCN1CCCC1",
    "assay-system": "EGFR L858R&T790M (Homo sapiens, UniProt P00533, L858R/T790M)",
    "pIC50": 8.96
  }
]

Incoming: Consider the molecule shown here: "C=CC(=O)Nc1cc(Nc2ncnc(Nc3cnc(F)cc3C(C)(C)O)n2)c(OC)cc1N(C)CCN(C)C" What is its recorded pIC50?
Outgoing: 8.51

Incoming: Fill in the blank: the reported pIC50 of "C=CC(=O)Nc1cc(Nc2ncnc(Nc3cc(Cl)c(F)cc3C(C)(C)O)n2)c(OC)cc1N1C[C@@H](F)[C@@H](N(C)C)C1" is ____.
Outgoing: 8.80

Incoming: For the molecule shown here, C=CC(=O)Nc1cc(Nc2nccc(Nc3cc(Cl)c(F)cc3C(C)(O)CC)n2)c(OC)cc1N1CC[C@@H](N(C)C)C1 (single isomer, unassigned) [Compound 77] , give the reported pIC50.
Outgoing: 8.77

Incoming: Requested field: pIC50. Item: "C=CC(=O)Nc1cc(Nc2ncnc(Nc3cc(F)c(F)cc3C(C)(C)O)n2)c(OC)cc1N1CCOC[C@@H]1CN(C)C"
Outgoing: 9.30

Incoming: Query: pIC50; subject: "C=CC(=O)Nc1cc(Nc2ncnc(Nc3cc(Cl)c(F)cc3C(C)(C)O)n2)c(OC)cc1N(C)C[C@H]1CCCN1C"
Outgoing: 9.30

###

- assay-system: human EGFR exon 20 V769_D770insASV (Homo sapiens, UniProt P00533, INS769ASV)
- Sequence (P00533 with tags, fused parts or gaps INS769ASV): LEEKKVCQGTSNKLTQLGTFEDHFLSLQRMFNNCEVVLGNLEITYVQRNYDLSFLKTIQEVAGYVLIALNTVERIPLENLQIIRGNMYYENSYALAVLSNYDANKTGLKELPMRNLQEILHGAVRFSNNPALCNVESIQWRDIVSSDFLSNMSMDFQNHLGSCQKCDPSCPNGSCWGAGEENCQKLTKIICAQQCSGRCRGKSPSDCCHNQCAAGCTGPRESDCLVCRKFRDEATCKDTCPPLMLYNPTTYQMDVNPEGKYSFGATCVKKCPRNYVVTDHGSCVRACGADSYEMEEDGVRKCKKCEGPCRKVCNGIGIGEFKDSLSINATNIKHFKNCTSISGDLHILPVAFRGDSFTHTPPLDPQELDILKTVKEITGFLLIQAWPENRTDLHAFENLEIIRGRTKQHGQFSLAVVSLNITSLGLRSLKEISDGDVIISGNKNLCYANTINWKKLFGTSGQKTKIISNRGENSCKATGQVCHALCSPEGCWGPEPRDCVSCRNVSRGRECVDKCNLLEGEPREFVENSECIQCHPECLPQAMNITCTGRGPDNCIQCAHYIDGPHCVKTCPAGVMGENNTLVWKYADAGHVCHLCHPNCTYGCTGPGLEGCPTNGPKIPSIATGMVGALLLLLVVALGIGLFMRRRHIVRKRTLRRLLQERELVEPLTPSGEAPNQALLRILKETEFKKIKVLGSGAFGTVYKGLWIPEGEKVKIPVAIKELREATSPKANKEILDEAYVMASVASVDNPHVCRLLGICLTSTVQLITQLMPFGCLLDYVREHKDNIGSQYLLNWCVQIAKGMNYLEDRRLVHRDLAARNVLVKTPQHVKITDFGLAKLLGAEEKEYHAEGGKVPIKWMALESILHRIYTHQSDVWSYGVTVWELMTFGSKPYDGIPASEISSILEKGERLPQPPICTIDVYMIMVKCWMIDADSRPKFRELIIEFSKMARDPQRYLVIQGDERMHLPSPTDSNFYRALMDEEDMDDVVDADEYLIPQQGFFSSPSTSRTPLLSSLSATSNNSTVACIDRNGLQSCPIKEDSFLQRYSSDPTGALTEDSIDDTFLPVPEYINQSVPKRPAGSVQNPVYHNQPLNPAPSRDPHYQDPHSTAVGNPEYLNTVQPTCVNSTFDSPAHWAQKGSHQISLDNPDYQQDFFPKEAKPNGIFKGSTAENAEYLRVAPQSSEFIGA
- experiment-description: EGFR Exon20 ASV insertion cellular phosphorylation inhibition (MSD pEGFR Y1068/total EGFR);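 also: electrochemiluminescent readout on an MSD SECTOR Imager, IL3-independent transduced cells in medium with 1% FBS, compound concentration series at 37 °C and 5% CO2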
- condition-info: Ba/F3 EGFR ASV ins cells, 4 h compound, p-EGFR(Y1068)/total EGFR
outcome-measure: pIC50
As a rule, pIC50 stands for the negative log10 of the concentration, concentration in M.

Sample records with pIC50:
[
  {
    "molecular-string": "C=CC(=O)Nc1cc(Nc2ncnc(Nc3cc(F)c(F)cc3C(C)(C)O)n2)c(OC)cc1N1CC[C@@H]2CN(C)C[C@@H]21",
    "pIC50": 8.11
  },
  {
    "molecular-string": "C=CC(=O)Nc1cc(Nc2ncnc(Nc3cc(F)c(Cl)cc3C(C)(C)O)n2)c(OC)cc1N1CC[C@@H]2CN(C)C[C@@H]21",
    "pIC50": 8.17
  },
  {
    "molecular-string": "C=CC(=O)Nc1cc(Nc2ncnc(Nc3cc(Cl)c(Cl)cc3C(C)(C)O)n2)c(OC)cc1N(C)CCN(C)C",
    "pIC50": 8.12
  },
  {
    "molecular-string": "C=CC(=O)Nc1cc(Nc2ncnc(Nc3cc(Cl)c(F)cc3C(C)(C)O)n2)c(OC)cc1N1CC[C@@H](NC)C1",
    "pIC50": 8.07
  },
  {
    "molecular-string": "C=CC(=O)Nc1cc(Nc2ncnc(Nc3ccccc3C3(O)CC3)n2)c(OC)cc1N(C)CCN(C)C",
    "pIC50": 7.87
  }
]

Incoming: human EGFR exon 20 V769_D770insASV (Homo sapiens, UniProt P00533, INS769ASV) / pIC50 / "C=CC(=O)Nc1cc(Nc2ncnc(Nc3cc(Cl)c(F)cc3C(C)(C)O)n2)c(OC)cc1N(C)C[C@@H]1CCCN1C" : value?
Outgoing: 7.90

###

Below, each entry is listed alongside its reported pIC50.
- assay-system: human EGFR exon 20 H773_V774insNPH (Homo sapiens, UniProt P00533, INS773NPH)
- Sequence (P00533 with tags, fused parts or gaps INS773NPH): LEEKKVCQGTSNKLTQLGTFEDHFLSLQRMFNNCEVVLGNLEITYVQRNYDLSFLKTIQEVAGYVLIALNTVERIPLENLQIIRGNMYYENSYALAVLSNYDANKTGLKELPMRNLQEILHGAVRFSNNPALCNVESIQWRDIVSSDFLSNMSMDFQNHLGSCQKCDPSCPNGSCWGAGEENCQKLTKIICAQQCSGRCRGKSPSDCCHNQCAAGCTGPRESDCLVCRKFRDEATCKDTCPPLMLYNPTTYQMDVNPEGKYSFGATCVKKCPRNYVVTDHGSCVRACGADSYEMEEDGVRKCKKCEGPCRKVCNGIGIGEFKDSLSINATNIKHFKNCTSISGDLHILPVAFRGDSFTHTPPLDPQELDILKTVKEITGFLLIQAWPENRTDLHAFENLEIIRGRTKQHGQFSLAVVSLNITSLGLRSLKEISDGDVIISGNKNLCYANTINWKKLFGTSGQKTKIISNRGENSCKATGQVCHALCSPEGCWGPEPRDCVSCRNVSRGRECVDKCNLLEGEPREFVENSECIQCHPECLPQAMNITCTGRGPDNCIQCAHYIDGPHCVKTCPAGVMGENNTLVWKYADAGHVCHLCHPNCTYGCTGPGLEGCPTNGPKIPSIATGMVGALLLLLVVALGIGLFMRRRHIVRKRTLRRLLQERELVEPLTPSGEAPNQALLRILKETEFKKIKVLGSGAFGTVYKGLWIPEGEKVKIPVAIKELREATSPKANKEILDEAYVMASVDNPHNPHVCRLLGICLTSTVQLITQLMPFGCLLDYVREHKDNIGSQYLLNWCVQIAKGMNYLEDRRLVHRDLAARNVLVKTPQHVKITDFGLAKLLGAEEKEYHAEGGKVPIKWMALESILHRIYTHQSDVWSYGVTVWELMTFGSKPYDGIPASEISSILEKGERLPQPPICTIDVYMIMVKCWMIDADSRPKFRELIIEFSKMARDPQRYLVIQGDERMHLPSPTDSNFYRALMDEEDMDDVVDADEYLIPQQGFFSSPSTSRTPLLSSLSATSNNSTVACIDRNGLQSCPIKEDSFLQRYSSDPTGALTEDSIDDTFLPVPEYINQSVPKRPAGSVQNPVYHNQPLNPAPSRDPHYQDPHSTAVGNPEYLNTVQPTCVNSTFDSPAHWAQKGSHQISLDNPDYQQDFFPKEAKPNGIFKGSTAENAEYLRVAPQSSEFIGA
- experiment-description: EGFR Exon20 NPH insertion cellular phosphorylation inhibition (MSD pEGFR Y1068/total EGFR)
- condition-info: Ba/F3 EGFR NPH ins cells, 4 h compound, p-EGFR(Y1068)/total EGFR
Structures can show the parent of a compound that is named as a salt.
As a rule, pIC50 stands for the negative log10 of the concentration, concentration in M.

Incoming: Tell me the measured pIC50 of C=CC(=O)Nc1cc(Nc2nccc(Nc3cc(Cl)c(F)cc3C(C)(C)O)n2)c(OC)cc1N(C)C[C@H]1C[C@H](C)CN1C [Compound 90, formic acid salt] , please.
Outgoing: 7.51

Incoming: Reported pIC50, compound "C=CC(=O)Nc1cc(Nc2ncnc(Nc3cnc(F)cc3C(C)(C)O)n2)c(OC)cc1N(C)CCN(C)C" : ____
Outgoing: 6.53

Incoming: Which value of pIC50 has been reported for "C=CC(=O)Nc1cc(Nc2nccc(Nc3cc(Cl)c(Cl)cc3C(C)(C)O)n2)c(OC)cc1N1CC[C@@H]1CN(C)C" in the records?
Outgoing: 7.29

###

- assay-system: human EGFR exon 20 H773_V774insNPH (Homo sapiens, UniProt P00533, INS773NPH)
- experiment-description: EGFR Exon20 NPH insertion cellular phosphorylation inhibition (MSD pEGFR Y1068/total EGFR);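 also: IL3-independent Ba/F3 cells with constitutively phosphorylated EGFR, compound exposure at 37 °C under 5% CO2, electrochemiluminescent MSD measurement of the p-EGFR to total EGFR ratio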
- condition-info: Ba/F3 EGFR NPH ins cells, 4 h compound, p-EGFR(Y1068)/total EGFR
outcome-measure: pIC50
# log scale: pIC50 equals minus log10 of the concentration in mol/L

Check out these entries, answers already filled in.
[
  {
    "molecule": "C=CC(=O)Nc1cc(Nc2ncnc(Nc3ccc(F)c(F)c3C(C)(C)O)n2)c(OC)cc1N(C)CCN(C)C [Compound 9]",
    "outcome-measure": "pIC50",
    "quantitative-result": 7.29
  },
  {
    "molecule": "C=CC(=O)Nc1cc(Nc2nccc(Nc3cc(Cl)c(F)cc3C(C)(C)O)n2)c(OC)cc1N1CC[C@@H]1CN(C)C [Compound 53]",
    "outcome-measure": "pIC50",
    "quantitative-result": 7.52
  },
  {
    "molecule": "C=CC(=O)Nc1cc(Nc2ncnc(Nc3cc(Cl)c(F)cc3C(C)(C)O)n2)c(OC)cc1N1CC[C@H](N(C)C)C1 [Compound 60]",
    "outcome-measure": "pIC50",
    "quantitative-result": 7.54
  },
  {
    "molecule": "C=CC(=O)Nc1cc(Nc2ncnc(Nc3cc(F)c(Cl)cc3C(C)(C)O)n2)c(OC)cc1N1CC[C@@H]2CN(C)C[C@@H]21 [Compound 41]",
    "outcome-measure": "pIC50",
    "quantitative-result": 7.90
  }
]

Incoming: Sample COc1cc(N(C)CCN(C)C)c(NC(=O)/C=C/CN(C)C)cc1Nc1ncnc(Nc2cc(F)c(F)cc2C(C)(C)O)n1 [Compound 5] — what was its pIC50?
Outgoing: 6.57

Incoming: Using the record for C=CC(=O)Nc1cc(Nc2ncnc(Nc3cc(F)c(Cl)c(F)c3C(C)(C)O)n2)c(OC)cc1N(C)CCN(C)C [Compound 16] , report its pIC50.
Outgoing: 7.44

Incoming: Consider the molecule C=CC(=O)Nc1cc(Nc2ncnc(Nc3ccccc3C(C)(C)O)n2)c(OC)cc1N1CCC[C@@H](N(C)C)C1 [Compound 1] and give its measured pIC50.
Outgoing: 6.37

Incoming: # input molecule: C=CC(=O)Nc1cc(Nc2ncc(C(F)(F)F)c(Nc3cc(Cl)c(F)cc3C(C)(C)O)n2)c(OC)cc1N1CC[C@@H](N(C)C)C1 [Compound 84] ; wanted: its pIC50
Outgoing: 6.59

Incoming: Which pIC50 is reported for this molecule? C=CC(=O)Nc1cc(Nc2ncnc(Nc3ccc4[nH]ccc4c3C(C)(C)O)n2)c(OC)cc1N(C)CCN(C)C [Compound 94]
Outgoing: 7.55

Incoming: # lookup: pIC50 of C=CC(=O)Nc1cc(Nc2ncnc(Nc3cc(Cl)c(F)cc3C(C)(C)O)n2)c(OC)cc1N(C)CCN1CCCCC1 [Compound 26]
Outgoing: 7.36

Incoming: Fill in: pIC50 of C=CC(=O)Nc1cc(Nc2ncnc(Nc3cc(Cl)c(F)cc3C(C)(C)O)n2)c(OC)cc1N1CCOC[C@@H]1CN(C)C [Compound 40] is ___
Outgoing: 7.96

These entries and their values trace back to patent US20230293535A1.
